Molecular target: T1, human TGFβ3, mature dimeric form (human, UniProt P10600 301-412)
T1 sequence: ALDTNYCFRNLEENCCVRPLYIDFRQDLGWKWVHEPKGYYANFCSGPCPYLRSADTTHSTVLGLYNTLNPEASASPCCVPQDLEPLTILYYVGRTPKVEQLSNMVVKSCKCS
Assay: cell-based or functional assay
Catalogue of HEKBlue TGFβ blocking IC50 values
Express it in nM; write the number only.

# annotated cases, reported HEKBlue TGFβ blocking IC50 shown
• h2A10.v2.3 (antibody, human IgG1, kappa, N297G, V domains shown) VH: EVQLLESGGGLVQPGGSLRLSCAASGFDFNSYGMSWVRQAPGKGLELVADIVSKTYNYTTYYSDSVKDRFTISRDDSKSTVYLQMNSLRAEDTAVYYCTVAPGGSFDYWGQGTLVTVSS VL: DIQLTQSPSSLSASVGDRVTITCRASQSVSISRFNLMHWYQHKPGKAPKLLIYRASNLASGIPSRFSGSGSGTDFTLTISSLQPEDFATYYCQHSRESPWTFGGGTKVEIKR = 0.01
• h2A10.v2.9 (antibody, human IgG1, kappa, N297G, V domains shown) VH: EVQLLESGGGLVQPGGSLRLSCAASGFDFNSYGMSWVRQAPGKGLELVADIVSKTYNYTTYYSDSVKDRFTISRDDSKSTLYLQMNSLRAEDTAVYYCTVAPGGSFDYWGQGTLVTVSS VL: DIQLTQSPSSLSASVGDRVTITCRASQSVSISRFNLMHWYQHKPGKQPKLLIYRASNLASGIPSRFSGSGSGTDFTLTISSLQPEDFATYYCQHSRESPWTFGGGTKVEIKR = 0.01

// below: HEKBlue TGFβ blocking IC50 requested for another binder
// field: HEKBlue TGFβ blocking IC50; key: h2A10.v2.4 (antibody, human IgG1, kappa, N297G, V domains shown) VH: EVQLLESGGGLVQPGGSLRLSCAASGFDFNSYGMSWVRQAPGKGLELVADIVSKTYNYTTYYSDSVKDRFTISRDDSKSTVYLQMNSLRAEDTAVYYCTVAPGGSFDYWGQGTLVTVSS VL: DIQLTQSPSSLSASVGDRVTITCRASQSVSISRFNLMHWYQHKPGKQPKLLIYRASNLASGVPSRFSGSGSGTDFTLTISSLQPEDFATYYCQHSRESPWTFGGGTKVEIKR ; value = 0.01
